Experiment: aqueous solubility, shake-flask procedure
Format: physicochemical
Conditions: aqueous buffer, thermodynamic from solid, Britton-Robinson buffer pH 6.5, read-out: Aqueous Solubility S
outcomeMeasure: solubility

QUERY: Return solubility (reported value) for this compound: O=C(O)Cn1ccc2ccc(-c3cn(-c4ccc(O)c(F)c4)nn3)nc2c1=O [Compound 4b]
RESULT: 288 µg/mL

All values here come from patent US10899739B2.
